A collection of compounds and their measured relative viability
- Tested on: NCI-H2170
- experiment_description: relative viability (nuclei count vs DMSO), 5 days (fraction); higher = more cells survive
- assay_setup: first compound 0.005 µM
Write no unit; give the number alone.

Completed entries (count: 3):
- compound: "CC1(C)CCC(c2ccc(Cl)cc2)=C(CN2CCN(c3ccc(C(=O)NS(=O)(=O)c4ccc(N[C@H](CCN5CCOCC5)CSc5ccccc5)c(S(=O)(=O)C(F)(F)F)c4)cc3)CC2)C1 [Navitoclax] + Cc1nc(NC(=O)N2CCC[C@H]2C(N)=O)sc1-c1ccnc(C(C)(C)C(F)(F)F)c1 [Alpelisib] (partner 2 µM)"
  value_reported: 0.785
- compound: "CC1(C)CCC(c2ccc(Cl)cc2)=C(CN2CCN(c3ccc(C(=O)NS(=O)(=O)c4ccc(N[C@H](CCN5CCOCC5)CSc5ccccc5)c(S(=O)(=O)C(F)(F)F)c4)cc3)CC2)C1 [Navitoclax] + O=C(c1cc(Cc2n[nH]c(=O)c3ccccc23)ccc1F)N1CCN(C(=O)C2CC2)CC1 [Olaparib] (partner 8 µM)"
  value_reported: 0.574
- compound: "CC1(C)CCC(c2ccc(Cl)cc2)=C(CN2CCN(c3ccc(C(=O)NS(=O)(=O)c4ccc(N[C@H](CCN5CCOCC5)CSc5ccccc5)c(S(=O)(=O)C(F)(F)F)c4)cc3)CC2)C1 [Navitoclax] + Cc1cc(Nc2cc(N3CCN(C)CC3)nc(Sc3ccc(NC(=O)C4CC4)cc3)n2)n[nH]1 [Tozasertib] (partner 0.1 µM)"
  value_reported: 0.716

So, CC1(C)CCC(c2ccc(Cl)cc2)=C(CN2CCN(c3ccc(C(=O)NS(=O)(=O)c4ccc(N[C@H](CCN5CCOCC5)CSc5ccccc5)c(S(=O)(=O)C(F)(F)F)c4)cc3)CC2)C1 [Navitoclax] + Cc1nc(Nc2ncc(C(=O)Nc3c(C)cccc3Cl)s2)cc(N2CCN(CCO)CC2)n1 [Dasatinib] (partner 0.075 µM) ? Its relative viability was 0.557

====

A collection of compounds and their measured relative viability
- Test system: NCI-H1915
- experiment_description: relative viability (nuclei count vs DMSO), 5 days (fraction); higher = more cells survive
- assay_setup: first compound 0.08 µM
Write no unit; give the number alone.

So, Oc1nc(-c2ccc(C(F)(F)F)cc2)nc2c1CSCC2 [XAV939] + Nc1ncn([C@H]2C[C@H](O)[C@@H](CO)O2)c(=O)n1 [Decitabine] (partner 2 µM) ? Its relative viability was 0.253

So, C=C1C(=O)O[C@@H](CCCCCCCC)[C@@H]1C(=O)O [C-75] + COc1cc2c(Oc3ccc(NC(=O)C4(C(=O)Nc5ccc(F)cc5)CC4)cc3F)ccnc2cc1OCCCN1CCOCC1 [Foretinib] (partner 0.25 µM) ? Its relative viability was 1.04

So, Oc1nc(-c2ccc(C(F)(F)F)cc2)nc2c1CSCC2 [XAV939] + Cc1nc(NC(=O)N2CCC[C@H]2C(N)=O)sc1-c1ccnc(C(C)(C)C(F)(F)F)c1 [Alpelisib] (partner 2 µM) ? Its relative viability was 1.08

So, C=C1C(=O)O[C@@H](CCCCCCCC)[C@@H]1C(=O)O [C-75] + NC(=O)Nc1cc(-c2cccc(F)c2)sc1C(=O)N[C@H]1CCCNC1 [AZD7762] (partner 0.2 µM) ? Its relative viability was 0.716

So, Oc1nc(-c2ccc(C(F)(F)F)cc2)nc2c1CSCC2 [XAV939] + NC(=O)Nc1cc(-c2cccc(F)c2)sc1C(=O)N[C@H]1CCCNC1 [AZD7762] (partner 0.2 µM) ? Its relative viability was 0.898

====

- Test system: H3255
- experiment_description: relative viability (nuclei count vs DMSO), 5 days (fraction); higher = more cells survive
- assay_setup: first compound 0.08 µM
A collection of compounds and their measured relative viability
Write no unit; give the number alone.

- compound: "C=C1C(=O)O[C@@H](CCCCCCCC)[C@@H]1C(=O)O [C-75] + C[C@@H](Oc1cc(-c2cnn(C3CCNCC3)c2)cnc1N)c1c(Cl)ccc(F)c1Cl [Crizotinib] (partner 1 µM)"
  relative viability: 0.909
- compound: "Oc1nc(-c2ccc(C(F)(F)F)cc2)nc2c1CSCC2 [XAV939] + COc1cccc2cc(-c3nc([C@H]4CC[C@H](C(=O)O)CC4)n4ncnc(N)c34)[nH]c12 [OSI-027] (partner 0.5 µM)"
  relative viability: 0.555
- compound: "C=C1C(=O)O[C@@H](CCCCCCCC)[C@@H]1C(=O)O [C-75] + O=C(CCCCCCC(=O)Nc1ccccc1)NO [Vorinostat] (partner 1 µM)"
  relative viability: 0.846
- compound: "C=C1C(=O)O[C@@H](CCCCCCCC)[C@@H]1C(=O)O [C-75] + CCNC(=O)c1noc(-c2cc(C(C)C)c(O)cc2O)c1-c1ccc(CN2CCOCC2)cc1 [Luminespib] (partner 0.01 µM)"
  relative viability: 0.935
- compound: "Oc1nc(-c2ccc(C(F)(F)F)cc2)nc2c1CSCC2 [XAV939] + COc1cc2c(Oc3ccc(NC(=O)C4(C(=O)Nc5ccc(F)cc5)CC4)cc3F)ccnc2cc1OCCCN1CCOCC1 [Foretinib] (partner 0.25 µM)"
  relative viability: 0.845
- compound: "Oc1nc(-c2ccc(C(F)(F)F)cc2)nc2c1CSCC2 [XAV939] + C[C@]1(O)C[C@@H](c2nc(-c3ccc4ccc(-c5ccccc5)nc4c3)c3c(N)nccn32)C1 [Linsitinib] (partner 1 µM)"
  relative viability: 0.981

So, Oc1nc(-c2ccc(C(F)(F)F)cc2)nc2c1CSCC2 [XAV939] + Cc1cc(Nc2cc(N3CCN(C)CC3)nc(Sc3ccc(NC(=O)C4CC4)cc3)n2)n[nH]1 [Tozasertib] (partner 0.1 µM) ? Its relative viability was 0.699

So, Oc1nc(-c2ccc(C(F)(F)F)cc2)nc2c1CSCC2 [XAV939] + Cc1nc(Nc2ncc(C(=O)Nc3c(C)cccc3Cl)s2)cc(N2CCN(CCO)CC2)n1 [Dasatinib] (partner 0.075 µM) ? Its relative viability was 0.341

So, C=C1C(=O)O[C@@H](CCCCCCCC)[C@@H]1C(=O)O [C-75] + CC(C)C[C@H](NC(=O)[C@H](Cc1ccccc1)NC(=O)c1cnccn1)B(O)O [Bortezomib] (partner 0.002 µM) ? Its relative viability was 0.841

So, Oc1nc(-c2ccc(C(F)(F)F)cc2)nc2c1CSCC2 [XAV939] + CC(=O)c1c(C)c2cnc(Nc3ccc(N4CCNCC4)cn3)nc2n(C2CCCC2)c1=O [Palbociclib] (partner 0.5 µM) ? Its relative viability was 0.311

So, Oc1nc(-c2ccc(C(F)(F)F)cc2)nc2c1CSCC2 [XAV939] + CS(=O)(=O)CCNCc1ccc(-c2ccc3ncnc(Nc4ccc(OCc5cccc(F)c5)c(Cl)c4)c3c2)o1 [Lapatinib] (partner 2 µM) ? Its relative viability was 0.19

So, Oc1nc(-c2ccc(C(F)(F)F)cc2)nc2c1CSCC2 [XAV939] + N=C(N)NC(=N)NCCc1ccccc1 [Phenformin] (partner 250 µM) ? Its relative viability was 0.415

So, C=C1C(=O)O[C@@H](CCCCCCCC)[C@@H]1C(=O)O [C-75] + C[C@]1(O)C[C@@H](c2nc(-c3ccc4ccc(-c5ccccc5)nc4c3)c3c(N)nccn32)C1 [Linsitinib] (partner 1 µM) ? Its relative viability was 0.868

So, C=C1C(=O)O[C@@H](CCCCCCCC)[C@@H]1C(=O)O [C-75] + Cc1nc(Nc2ncc(C(=O)Nc3c(C)cccc3Cl)s2)cc(N2CCN(CCO)CC2)n1 [Dasatinib] (partner 0.075 µM) ? Its relative viability was 0.382

So, Oc1nc(-c2ccc(C(F)(F)F)cc2)nc2c1CSCC2 [XAV939] + CC(=O)Nc1cccc(-n2c(=O)n(C3CC3)c(=O)c3c(Nc4ccc(I)cc4F)n(C)c(=O)c(C)c32)c1 [Trametinib] (partner 0.02 µM) ? Its relative viability was 0.674

So, C=C1C(=O)O[C@@H](CCCCCCCC)[C@@H]1C(=O)O [C-75] + CC(=O)c1c(C)c2cnc(Nc3ccc(N4CCNCC4)cn3)nc2n(C2CCCC2)c1=O [Palbociclib] (partner 0.5 µM) ? Its relative viability was 0.319

====

- Tested on: NCI-H1355
- experiment_description: relative viability (nuclei count vs DMSO), 5 days (fraction); higher = more cells survive
- assay_setup: first compound 0.005 µM
experimental_endpoint: relative viability
Write no unit; give the number alone.

- compound: "CC1(C)CCC(c2ccc(Cl)cc2)=C(CN2CCN(c3ccc(C(=O)NS(=O)(=O)c4ccc(N[C@H](CCN5CCOCC5)CSc5ccccc5)c(S(=O)(=O)C(F)(F)F)c4)cc3)CC2)C1 [Navitoclax] + CCNC(=O)c1noc(-c2cc(C(C)C)c(O)cc2O)c1-c1ccc(CN2CCOCC2)cc1 [Luminespib] (partner 0.01 µM)"
  relative viability: 0.725

// next entry
Summary line: CC1(C)CCC(c2ccc(Cl)cc2)=C(CN2CCN(c3ccc(C(=O)NS(=O)(=O)c4ccc(N[C@H](CCN5CCOCC5)CSc5ccccc5)c(S(=O)(=O)C(F)(F)F)c4)cc3)CC2)C1 [Navitoclax] + Cc1nc(NC(=O)N2CCC[C@H]2C(N)=O)sc1-c1ccnc(C(C)(C)C(F)(F)F)c1 [Alpelisib] (partner 2 µM) , NCI-H1355, reported relative viability = 0.833

Cited source: the supplement of paper PMC10307832
